Data provenance: patent US11584733B2

# assayed.target: Human recombinant HDAC6 (Homo sapiens)
# assay.notes: HDAC isomer assay, Fluor-de-Lys, HDAC6
# conditions: Example 6, FIG. 18; 2 mg/mL formulation in 5% DMSO/40% PEG 400/55% PBS; read-out: IC50 against HDAC6 protein
value.kind: IC50 (nM)
Write the answer as a number in nM, unit excluded.

Ask: Quick one: IC50 of O=C(CCCCCCC(=O)Nc1cccc2c1CN(C1CCC(=O)NC1=O)C2=O)NO (stereo not shown) ?
Reply: 60

###

Give measured pEC50 for each item. Keep answers brief.
# assayed.target: Human recombinant HDAC6 (Homo sapiens)
# Sequence (Q9UBN7 1-1215): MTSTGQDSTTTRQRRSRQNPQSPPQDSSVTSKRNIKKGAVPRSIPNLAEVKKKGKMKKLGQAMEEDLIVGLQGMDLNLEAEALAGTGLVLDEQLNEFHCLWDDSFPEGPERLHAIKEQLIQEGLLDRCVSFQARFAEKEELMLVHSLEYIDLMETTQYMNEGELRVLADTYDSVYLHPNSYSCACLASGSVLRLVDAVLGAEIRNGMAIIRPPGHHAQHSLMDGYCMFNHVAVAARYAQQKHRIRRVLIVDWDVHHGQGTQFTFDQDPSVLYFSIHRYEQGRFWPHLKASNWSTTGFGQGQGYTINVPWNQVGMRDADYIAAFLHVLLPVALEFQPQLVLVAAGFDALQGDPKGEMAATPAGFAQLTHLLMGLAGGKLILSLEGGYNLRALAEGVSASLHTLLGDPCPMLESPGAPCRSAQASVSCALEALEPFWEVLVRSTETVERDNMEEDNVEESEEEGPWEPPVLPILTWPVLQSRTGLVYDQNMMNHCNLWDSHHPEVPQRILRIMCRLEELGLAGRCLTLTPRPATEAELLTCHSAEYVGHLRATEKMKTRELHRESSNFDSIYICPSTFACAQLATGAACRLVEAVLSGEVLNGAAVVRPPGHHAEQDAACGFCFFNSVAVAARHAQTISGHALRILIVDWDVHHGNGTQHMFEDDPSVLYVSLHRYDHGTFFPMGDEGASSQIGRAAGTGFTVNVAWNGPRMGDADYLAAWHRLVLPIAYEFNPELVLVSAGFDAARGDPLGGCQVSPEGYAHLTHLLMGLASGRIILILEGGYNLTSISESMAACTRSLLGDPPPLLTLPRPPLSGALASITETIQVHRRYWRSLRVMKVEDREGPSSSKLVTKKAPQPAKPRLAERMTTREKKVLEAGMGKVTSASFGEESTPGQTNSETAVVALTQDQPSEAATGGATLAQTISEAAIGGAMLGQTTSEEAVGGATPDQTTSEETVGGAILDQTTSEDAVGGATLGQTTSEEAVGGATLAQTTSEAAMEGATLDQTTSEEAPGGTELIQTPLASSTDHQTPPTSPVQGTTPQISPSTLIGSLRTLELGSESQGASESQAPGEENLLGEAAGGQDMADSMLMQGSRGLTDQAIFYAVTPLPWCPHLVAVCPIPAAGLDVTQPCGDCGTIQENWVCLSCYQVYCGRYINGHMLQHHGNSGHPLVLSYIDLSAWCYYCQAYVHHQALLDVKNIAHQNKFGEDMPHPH
# assay.notes: HDAC isomer assay, Fluor-de-Lys, HDAC6
# Format: biochemical
# conditions: proof of concept; FIGS. 11 and 12; read-out: EC50 against HDAC6
pEC50: −log10 of the molar value.

Ask: Query: pEC50; subject: Nc1cccc2c1CN(C1CCC(=O)NC1=O)C2=O (centres unmarked) [lenalidomide, reference compound]
Reply: < 4.60

Ask: Give its pEC50 value. Item: O=C1CCCC(=O)N1 [glutaramide, glutarimide, reference compound]
Reply: < 4.60
